Quick reference for hERG among some compounds
biological target: UniProtKB Q12809; assay: hERG patch clamp assay (% inhibition at 10 μM); conditions: % inhibition at 10 μM, patch clamp
Sequence (Q12809 whole entry): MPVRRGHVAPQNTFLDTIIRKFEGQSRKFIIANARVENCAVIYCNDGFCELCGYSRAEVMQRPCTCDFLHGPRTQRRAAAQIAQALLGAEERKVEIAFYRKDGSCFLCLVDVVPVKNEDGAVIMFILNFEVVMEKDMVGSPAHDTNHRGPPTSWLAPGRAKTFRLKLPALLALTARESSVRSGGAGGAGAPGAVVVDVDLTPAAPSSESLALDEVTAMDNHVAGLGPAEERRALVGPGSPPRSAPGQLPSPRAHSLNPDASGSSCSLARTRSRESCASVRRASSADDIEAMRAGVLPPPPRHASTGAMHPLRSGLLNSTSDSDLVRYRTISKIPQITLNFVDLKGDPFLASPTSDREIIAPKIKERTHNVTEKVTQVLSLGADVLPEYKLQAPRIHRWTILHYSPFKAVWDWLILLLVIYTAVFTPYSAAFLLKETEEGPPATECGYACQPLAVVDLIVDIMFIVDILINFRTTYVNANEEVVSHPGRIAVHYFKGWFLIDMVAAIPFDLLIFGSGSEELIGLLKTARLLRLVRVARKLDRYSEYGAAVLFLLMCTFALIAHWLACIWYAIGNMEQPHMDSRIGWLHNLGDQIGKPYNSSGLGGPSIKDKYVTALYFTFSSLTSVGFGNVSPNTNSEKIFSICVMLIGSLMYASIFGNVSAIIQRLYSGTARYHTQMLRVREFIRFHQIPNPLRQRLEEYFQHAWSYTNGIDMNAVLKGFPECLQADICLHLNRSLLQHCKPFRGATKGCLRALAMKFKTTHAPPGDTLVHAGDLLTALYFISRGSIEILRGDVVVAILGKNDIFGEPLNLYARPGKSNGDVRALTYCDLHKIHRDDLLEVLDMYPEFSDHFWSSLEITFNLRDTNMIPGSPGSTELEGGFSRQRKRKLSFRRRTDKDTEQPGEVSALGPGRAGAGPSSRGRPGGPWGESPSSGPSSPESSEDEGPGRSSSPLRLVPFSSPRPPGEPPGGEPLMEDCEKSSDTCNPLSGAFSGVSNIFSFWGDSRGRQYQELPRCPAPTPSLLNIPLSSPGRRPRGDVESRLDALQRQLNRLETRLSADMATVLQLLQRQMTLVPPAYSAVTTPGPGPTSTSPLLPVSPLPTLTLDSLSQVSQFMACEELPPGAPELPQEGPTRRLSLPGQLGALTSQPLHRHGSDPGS

| RECORD SMILES | TARGET OR TEST SYSTEM | hERG, % |
| --- | --- | --- |
| CCN1CCC(CNc2nc(-c3ccc(-c4ccccc4)cc3)nc(C(Cl)(Cl)Cl)n2)CC1 | UniProtKB Q12809 | 38 |
| ClC(Cl)(Cl)c1ccc(-c2nc(NCCc3ccccn3)nc(C(Cl)(Cl)Cl)n2)cc1 | UniProtKB Q12809 | 5 |
| CN1CCC(Nc2nc(-c3ccc(S(C)(=O)=O)cc3)nc(C(Cl)(Cl)Cl)n2)CC1 | UniProtKB Q12809 | 72 |
| COc1ccc(-c2nc(NCc3ccncc3)nc(C(Cl)(Cl)Cl)n2)cc1 | UniProtKB Q12809 | 20 |

Value source: patent US9334246B2
